measurement description: Counterscreen qHTS assay for inhibitors of N-terminal methyltransferase 1 (NTMT1): SPKRIA Counterscreen Assay
setup conditions: biochemical qHTS; series mostly up to 99.2 µM
Results filed as inconclusive are left out. Calls of active or inactive are those of the source. Calls follow the shape of the dose curve; as a rule, active = well fitted inhibition curve with a large enough effect; inconclusive = small, poorly fitted or top-dose-only effect; inactive = no such curve, though single readings can be large or run the other way.
I would appreciate it if you answered using one of these outcomes: 1 for active, 0 for inactive

As a guide, the following entries are already answered.
compound | class
Cc1cc(C)n2c(Nc3c(C)cccc3C)c(-c3ccsc3)nc2n1 | 0
COc1cc2c(cc1O)CC[C@H]1[C@@H]2CC[C@]2(C)[C@H](O)CC[C@@H]12 | 1
CN(C)C(=O)c1ccc(-c2cc[nH]c(=O)c2N)cc1 | 0

Per the assay record, what outcome was assigned to `Cc1cc(C)nc(NC(=S)N2CCN(c3ccccn3)CC2)c1` ? 0

Per the assay record, what outcome was assigned to `COc1ccc(C(=O)Nc2onc3c2CCCC3)cc1` ? 0

Per the assay record, what outcome was assigned to `Cc1ccc(Nc2ncnc3c2cnn3-c2ccccc2)c(C)c1` ? 1

This collection of values is drawn from PubChem BioAssay AID1645879.
